Molecular target: GST tagged LXRalpha LBD (ligand binding domain) (Homo sapiens, UniProt Q13133)
Construct: purchased Invitrogen pv4655
Sequence (Q13133 209-447 limits assumed): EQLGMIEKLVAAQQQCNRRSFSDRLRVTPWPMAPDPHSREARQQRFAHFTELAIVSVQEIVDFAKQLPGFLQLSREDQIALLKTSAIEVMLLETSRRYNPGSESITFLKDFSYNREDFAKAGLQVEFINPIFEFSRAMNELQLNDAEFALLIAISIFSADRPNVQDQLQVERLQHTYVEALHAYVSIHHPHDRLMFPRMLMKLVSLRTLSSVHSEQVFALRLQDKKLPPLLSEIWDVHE
Experiment: LanthaScreen TR-FRET Liver X Receptor Coactivator Assay, LXR alpha-LBD (co-activator recruitment; IP and % Emax relative to T0901317)
Assay type: biochemical
Conditions: efficacy at max dose in relation to reference T0901317, LXR alpha-LBD; read-out: LXR alpha actiivty at max dose (%)
Answer NOT MET if Emax is under 20%, and MET if it is 20% or more.

• CNC(=O)c1ccc(N2CCC3(CC2)C[C@H]3CCN(C)C(=O)[C@](O)(c2ccccc2)C(F)(F)F)cc1Cl (single isomer, unassigned) [Example 7-7] = MET

Query: Please tell me: is the molecule CN(C)C(=O)c1ccc(N2CCC(CCCN(C)C(=O)[C@]3(c4ccccc4)CCOC3)CC2)nc1Cl at or over 20% in terms of Emax?
Result: NOT MET

Query: Please tell me: is the molecule CN(C)C(=O)c1ccc(N2CCC(CCCN(C)C(=O)[C@](O)(c3cc(F)cc(Cl)c3)C(F)(F)F)CC2)nc1Cl at or over 20% in terms of Emax?
Result: MET

Query: Please tell me: is the molecule COc1cccc([C@@](O)(C(=O)NC2(CCC3CCN(c4ccc(C(=O)N(C)C)c(Cl)n4)CC3)CC2)C(F)(F)F)c1 at or over 20% in terms of Emax?
Result: NOT MET

* * *

Biological target: GST tagged LXRbeta LBD (ligand binding domain) (Homo sapiens)
Construct: purchased Invitrogen pv4658.pps
Assay: LanthaScreen TR-FRET Liver X Receptor Coactivator Assay, LXR beta-LBD (co-activator recruitment; IP and % Emax relative to T0901317)
Type: biochemical
Details: efficacy at max dose in relation to reference T0901317, LXR beta-LBD; read-out: LXR beta actiivty at max dose (%)
Param label: returns rule met when Emax < 40%, returns rule not met otherwise, including exact equality.

* CN(C)C(=O)c1ccc(N2CCC([C@H]3C[C@H](N(C)C(=O)[C@](O)(c4cccc(C5CC5)c4)C(F)(F)F)C3)CC2)nc1Cl | rule not met

Query: # check: Emax < 40% for CN(C)C(=O)c1ccc(N2CCC(CCCN(C)C(=O)[C@](O)(c3ccccc3)C(F)(F)F)CC2)nc1C#N
Result: rule not met

Query: # check: Emax < 40% for CC(C)C(O)(C(=O)N(C)CCCC1CCN(c2ccc(C(=O)N(C)C)c(Cl)c2)CC1)C(F)(F)F (centres unmarked)
Result: rule not met

Query: # check: Emax < 40% for CN(C)C(=O)c1ccc(N2CCC(CCCNC(=O)[C@](O)(c3cc(Cl)cc(Cl)c3)C(F)(F)F)CC2)nc1Cl
Result: rule not met

* * *

Biological target: GST tagged LXRbeta LBD (ligand binding domain) (Homo sapiens, UniProt P55055)
Construct: purchased Invitrogen pv4658.pps
Sequence (P55055 222-460 limits assumed): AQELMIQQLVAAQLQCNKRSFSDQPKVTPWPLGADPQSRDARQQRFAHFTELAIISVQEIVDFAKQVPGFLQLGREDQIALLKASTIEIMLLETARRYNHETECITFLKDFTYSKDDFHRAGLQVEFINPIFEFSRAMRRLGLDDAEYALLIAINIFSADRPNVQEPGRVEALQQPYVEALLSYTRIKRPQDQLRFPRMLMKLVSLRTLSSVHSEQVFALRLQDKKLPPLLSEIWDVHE
Experiment: LanthaScreen TR-FRET Liver X Receptor Coactivator Assay, LXR beta-LBD (co-activator recruitment; IP and % Emax relative to T0901317)
Type: biochemical
Settings: efficacy at max dose in relation to reference T0901317, LXR beta-LBD; read-out: LXR beta actiivty at max dose (%)
parameter_measured: Emax (%)
Write the number in % without appending the unit.

Here is how some compounds turned out for Emax.
- CCOc1cccc([C@@](O)(C(=O)N(C)CCCC2CCN(c3ccc(C(=O)N(C)C)c(Cl)n3)CC2)C(F)(F)F)c1 [Example 1-36]: 63
- COc1cccc([C@@](O)(C(=O)NC[C@H](F)CC2CCN(c3ccc(C(=O)N(C)C)c(Cl)n3)CC2)C(F)(F)F)c1 [Example 3-7]: 94
- COc1cccc([C@@](O)(C(=O)N(C)CCCC2CCN(c3ccc(C(=O)NC(C)C)c(Cl)n3)CC2)C(F)(F)F)c1 [Example 2-1]: 51
- CN(C)C(=O)c1ccc(N2CCC(CCCN(C)C(=O)C3(c4ccccc4)CCOCC3)CC2)nc1Cl [Example 1-17]: 55
- CNC(=O)c1ccc(N2CCC(CCCN(C)C(=O)[C@](O)(c3cccc(OC)c3)C(F)(F)F)CC2)nc1Cl [Example 2-11]: 60
- CN(C)C(=O)c1ccc(N2CCC(CCCN(C)C(=O)[C@]3(c4ccccc4)CC(F)(F)CO3)CC2)nc1Cl [Example 1-66]: 82
- CN(C)C(=O)c1ccc(N2CCC(CCCN(C)C(=O)C3(c4ccccc4)CCCC3)CC2)nc1Cl [Example 1-42]: 64
- COc1cccc([C@@](O)(C(=O)N(C)CCCC2CCN(c3ccc(C(=O)N(C)C)c(OC)n3)CC2)C(F)(F)F)c1 [Example 2-18]: 47
- CN(C)C(=O)c1ccc(N2CCC3(CC2)CC3CCCNC(=O)[C@](O)(c2ccccc2)C(F)(F)F)cc1Cl (some centres unmarked) [Example 7-35]: 46
- CN(C)C(=O)c1ccc(N2CCC(CCCN(C)C(=O)[C@@](O)(c3cccc(OC(F)(F)F)c3)C(F)(F)F)CC2)nc1Cl [Example 1-39]: 53

Query: Which Emax value belongs to CCc1cccc([C@@](O)(C(=O)N(C)CCCC2CCN(c3ccc(C(=O)N(C)C)c(Cl)n3)CC2)C(F)(F)F)c1 [Example 1-28] ?
Result: 39
